assayed-target: Prostaglandin G/H synthase 2 (Homo sapiens, UniProt P35354)
Sequence (P35354 whole entry): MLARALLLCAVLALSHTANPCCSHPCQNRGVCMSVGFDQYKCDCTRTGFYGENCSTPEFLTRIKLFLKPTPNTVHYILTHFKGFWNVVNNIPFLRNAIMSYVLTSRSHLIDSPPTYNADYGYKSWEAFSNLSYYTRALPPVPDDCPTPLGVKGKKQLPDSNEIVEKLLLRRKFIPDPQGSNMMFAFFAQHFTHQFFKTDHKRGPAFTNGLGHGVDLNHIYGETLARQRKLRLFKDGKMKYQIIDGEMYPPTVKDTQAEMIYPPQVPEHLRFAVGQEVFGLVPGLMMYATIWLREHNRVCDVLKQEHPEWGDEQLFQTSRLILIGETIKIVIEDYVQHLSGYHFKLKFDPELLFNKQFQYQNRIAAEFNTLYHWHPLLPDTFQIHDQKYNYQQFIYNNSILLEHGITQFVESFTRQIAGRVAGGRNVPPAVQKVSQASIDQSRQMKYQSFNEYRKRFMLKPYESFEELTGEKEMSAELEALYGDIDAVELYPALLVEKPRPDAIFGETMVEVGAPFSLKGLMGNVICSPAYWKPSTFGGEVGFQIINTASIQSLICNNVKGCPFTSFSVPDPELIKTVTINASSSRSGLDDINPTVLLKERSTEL
experimental-details: Inhibition of COX2 (unknown origin) using arachidonic acid as substrate preincubated for 5 mins followed by substrate addition by microplate spectrophotometric analysis
property-label: pIC50
On this scale, pIC50 is minus log10 of a concentration expressed in M (mol/L).

Problem: For the molecule shown here, O=c1c(/C=N/Nc2ccc(C(F)(F)F)cc2)coc2c1ccc1oc(-c3ccc(Cl)cc3)cc12 , give the reported pIC50.
Solution: 5.00

----------
Listing of recorded pIC50 by entry.
assayed-target: Amine oxidase [flavin-containing] B (Homo sapiens)
Sequence (P27338 whole entry): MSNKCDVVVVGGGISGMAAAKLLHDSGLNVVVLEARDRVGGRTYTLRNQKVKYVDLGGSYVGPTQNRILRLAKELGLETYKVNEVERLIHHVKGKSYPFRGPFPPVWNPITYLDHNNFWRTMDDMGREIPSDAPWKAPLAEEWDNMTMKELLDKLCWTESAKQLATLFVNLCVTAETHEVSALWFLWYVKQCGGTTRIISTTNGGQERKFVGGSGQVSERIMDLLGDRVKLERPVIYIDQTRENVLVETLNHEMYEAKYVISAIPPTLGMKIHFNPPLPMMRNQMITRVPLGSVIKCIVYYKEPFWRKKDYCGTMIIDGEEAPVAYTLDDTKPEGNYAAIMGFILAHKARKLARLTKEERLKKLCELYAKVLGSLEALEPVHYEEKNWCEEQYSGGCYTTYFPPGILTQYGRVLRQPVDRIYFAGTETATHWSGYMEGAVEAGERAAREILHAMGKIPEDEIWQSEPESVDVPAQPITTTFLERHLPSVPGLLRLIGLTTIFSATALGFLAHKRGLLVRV
experimental-details: Inhibition of recombinant human MAO-B using kynuramine as substrate preincubated for 10 mins followed by enzyme addition and measured after 20 mins by fluorescent microplate reader analysis
On this scale, pIC50 is minus log10 of a concentration expressed in M (mol/L).

structure-notation | property-label | meas-value
COc1ccc2c(=O)c(N3CCN(c4ccccc4)CC3)coc2c1 | pIC50 | 7.82

Problem: Record lookup: for Amine oxidase [flavin-containing] B (Homo sapiens), what pIC50 belongs to COc1ccc2c(=O)cc(-n3ccc4ccccc43)oc2c1 ?
Solution: 6.82

Problem: Record lookup: for Amine oxidase [flavin-containing] B (Homo sapiens), what pIC50 belongs to COc1ccc2ccn(-c3cc(=O)c4ccccc4o3)c2c1 ?
Solution: 6.82

Problem: Record lookup: for Amine oxidase [flavin-containing] B (Homo sapiens), what pIC50 belongs to COc1ccc2oc(-n3ccc4ccccc43)cc(=O)c2c1 ?
Solution: 6.20

----------
assayed-target: Cholinesterase (Homo sapiens)
Sequence (P06276 whole entry): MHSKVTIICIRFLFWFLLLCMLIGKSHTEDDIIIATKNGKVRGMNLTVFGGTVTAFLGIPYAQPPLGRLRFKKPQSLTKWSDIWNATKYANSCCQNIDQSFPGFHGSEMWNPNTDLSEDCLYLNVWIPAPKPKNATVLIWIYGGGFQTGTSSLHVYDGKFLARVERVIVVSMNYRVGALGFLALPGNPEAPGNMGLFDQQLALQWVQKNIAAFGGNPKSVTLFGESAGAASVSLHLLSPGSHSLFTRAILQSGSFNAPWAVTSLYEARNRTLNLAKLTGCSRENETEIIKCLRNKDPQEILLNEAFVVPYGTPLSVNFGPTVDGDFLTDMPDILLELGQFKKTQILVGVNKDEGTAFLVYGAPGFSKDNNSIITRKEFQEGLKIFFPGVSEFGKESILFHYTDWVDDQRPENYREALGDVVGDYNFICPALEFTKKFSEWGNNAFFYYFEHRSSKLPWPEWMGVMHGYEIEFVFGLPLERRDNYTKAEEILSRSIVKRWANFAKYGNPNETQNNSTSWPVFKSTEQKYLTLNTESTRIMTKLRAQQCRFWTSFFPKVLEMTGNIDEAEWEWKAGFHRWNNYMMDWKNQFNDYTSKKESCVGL
experimental-details: Inhibition of BuChE (unknown origin)
property-label: IC50 (µM)
Give the number; µM is assumed, so skip it.

Problem: For the molecule shown here, O=C(CCCCC1CCSS1)NCc1cn(CCCCOc2ccc3c(=O)ccoc3c2)nn1 (stereo unspecified) , give the reported IC50.
Solution: 8

----------
assayed-target: Cholinesterase (Equus caballus)
Sequence (P81908 whole entry): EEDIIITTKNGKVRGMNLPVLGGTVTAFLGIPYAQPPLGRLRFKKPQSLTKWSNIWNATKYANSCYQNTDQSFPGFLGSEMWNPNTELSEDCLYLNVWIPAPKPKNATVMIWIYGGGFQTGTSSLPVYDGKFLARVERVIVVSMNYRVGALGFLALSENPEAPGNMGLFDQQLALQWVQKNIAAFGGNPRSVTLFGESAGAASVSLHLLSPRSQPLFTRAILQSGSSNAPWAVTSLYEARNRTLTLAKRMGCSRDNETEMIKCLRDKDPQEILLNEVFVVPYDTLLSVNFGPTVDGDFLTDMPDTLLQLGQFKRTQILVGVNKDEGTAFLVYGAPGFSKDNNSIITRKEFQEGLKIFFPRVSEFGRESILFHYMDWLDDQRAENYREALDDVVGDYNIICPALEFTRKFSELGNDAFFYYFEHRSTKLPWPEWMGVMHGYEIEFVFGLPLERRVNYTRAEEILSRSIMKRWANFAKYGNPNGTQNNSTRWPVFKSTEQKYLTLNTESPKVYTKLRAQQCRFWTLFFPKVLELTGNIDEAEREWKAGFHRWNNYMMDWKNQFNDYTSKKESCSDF
experimental-details: Inhibition of equine serum BuchE using butyrylthiocholine iodide as substrate preincubated for 10 mins followed by substrate addition and measured after 20 mins by DTNB based Ellman's method
property-label: pIC50
On this scale, pIC50 is minus log10 of a concentration expressed in M (mol/L).

Problem: For the compound shown here, COc1ccc2[nH]cc(CCNC(=O)CN(CCCCC3CCN(Cc4ccccc4)CC3)C(=O)c3cc(=O)c4ccccc4o3)c2c1 , give the reported pIC50.
Solution: 7.92

----------
assayed-target: Amine oxidase [flavin-containing] A (Homo sapiens, UniProt P21397)
Sequence (P21397 whole entry): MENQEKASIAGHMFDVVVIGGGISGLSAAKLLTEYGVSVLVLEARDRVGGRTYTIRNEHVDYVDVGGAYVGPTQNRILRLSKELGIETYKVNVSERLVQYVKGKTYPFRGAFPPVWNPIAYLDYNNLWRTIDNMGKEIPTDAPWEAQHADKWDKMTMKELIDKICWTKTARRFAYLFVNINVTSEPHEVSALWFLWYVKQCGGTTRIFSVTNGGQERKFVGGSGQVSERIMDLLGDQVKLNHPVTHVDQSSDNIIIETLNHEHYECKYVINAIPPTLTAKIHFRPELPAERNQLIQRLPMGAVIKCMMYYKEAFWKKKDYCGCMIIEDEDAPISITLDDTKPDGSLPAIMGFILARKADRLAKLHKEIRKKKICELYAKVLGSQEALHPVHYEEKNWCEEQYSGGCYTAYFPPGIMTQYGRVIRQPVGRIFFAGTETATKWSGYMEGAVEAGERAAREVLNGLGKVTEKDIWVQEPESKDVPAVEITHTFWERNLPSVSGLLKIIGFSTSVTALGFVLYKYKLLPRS
experimental-details: Inhibition of human MAO-A using kynuramine as substrate preincubated for 5 mins followed by substrate addition and measured after 30 mins by spectroscopic analysis
property-label: IC50
Include the unit right after the number.

Problem: For the compound shown here, COc1ccc2[nH]cc(CCNC(=O)CN(CCCCC3CCN(Cc4ccccc4)CC3)C(=O)c3cc(=O)c4ccccc4o3)c2c1 , give the reported IC50.
Solution: 3 µM

----------
assayed-target: Polyunsaturated fatty acid 5-lipoxygenase (Homo sapiens, UniProt P09917)
Sequence (P09917 whole entry): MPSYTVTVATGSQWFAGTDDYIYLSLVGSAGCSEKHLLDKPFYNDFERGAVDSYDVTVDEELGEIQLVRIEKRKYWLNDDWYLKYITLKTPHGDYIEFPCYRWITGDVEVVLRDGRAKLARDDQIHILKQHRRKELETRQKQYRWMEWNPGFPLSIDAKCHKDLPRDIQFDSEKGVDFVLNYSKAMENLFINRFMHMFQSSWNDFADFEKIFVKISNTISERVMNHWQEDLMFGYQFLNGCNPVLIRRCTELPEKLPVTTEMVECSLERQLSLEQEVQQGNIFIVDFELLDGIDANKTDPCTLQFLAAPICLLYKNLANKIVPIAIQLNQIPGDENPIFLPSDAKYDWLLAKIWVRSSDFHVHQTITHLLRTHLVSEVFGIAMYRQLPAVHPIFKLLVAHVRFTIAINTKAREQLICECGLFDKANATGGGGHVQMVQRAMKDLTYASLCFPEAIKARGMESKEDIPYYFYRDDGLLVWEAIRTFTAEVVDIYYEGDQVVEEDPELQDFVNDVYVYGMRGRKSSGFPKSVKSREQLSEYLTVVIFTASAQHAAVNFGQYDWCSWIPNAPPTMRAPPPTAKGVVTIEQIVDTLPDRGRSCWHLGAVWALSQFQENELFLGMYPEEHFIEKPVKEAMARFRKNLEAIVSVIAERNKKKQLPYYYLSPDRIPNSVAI
experimental-details: Inhibition of human LOX5 using arachidonic acid preincubated for 10 mins followed by substrate addition by microplate spectrophotometric analysis
property-label: IC50 (µM)
Give the number; µM is assumed, so skip it.

Problem: Record lookup: for Polyunsaturated fatty acid 5-lipoxygenase (Homo sapiens, UniProt P09917), what IC50 belongs to COc1ccc(-c2cc3cc4c(=O)c(C=O)coc4cc3o2)cc1 ?
Solution: 15

Problem: Record lookup: for Polyunsaturated fatty acid 5-lipoxygenase (Homo sapiens, UniProt P09917), what IC50 belongs to O=c1c(/C=N/Nc2ccc(C(F)(F)F)cc2)coc2c1ccc1oc(-c3ccc(Cl)cc3)cc12 ?
Solution: 29

----------
assayed-target: Amine oxidase [flavin-containing] A (Homo sapiens)
experimental-details: Inhibition of MAO-A (unknown origin) by fluorescence spectrophotometer analysis
property-label: IC50 (nM)
Give the number; nM is assumed, so skip it.

Problem: For the molecule shown here, O=c1cc(-c2ccc(Cl)cc2)oc2ccc(Cn3cc(Nc4ccc(F)cc4)nn3)cc12 , give the reported IC50.
Solution: 1600

----------
Listing of recorded pIC50 by entry.
assayed-target: Beta-secretase 1 (Homo sapiens, UniProt P56817)
Sequence (P56817 whole entry): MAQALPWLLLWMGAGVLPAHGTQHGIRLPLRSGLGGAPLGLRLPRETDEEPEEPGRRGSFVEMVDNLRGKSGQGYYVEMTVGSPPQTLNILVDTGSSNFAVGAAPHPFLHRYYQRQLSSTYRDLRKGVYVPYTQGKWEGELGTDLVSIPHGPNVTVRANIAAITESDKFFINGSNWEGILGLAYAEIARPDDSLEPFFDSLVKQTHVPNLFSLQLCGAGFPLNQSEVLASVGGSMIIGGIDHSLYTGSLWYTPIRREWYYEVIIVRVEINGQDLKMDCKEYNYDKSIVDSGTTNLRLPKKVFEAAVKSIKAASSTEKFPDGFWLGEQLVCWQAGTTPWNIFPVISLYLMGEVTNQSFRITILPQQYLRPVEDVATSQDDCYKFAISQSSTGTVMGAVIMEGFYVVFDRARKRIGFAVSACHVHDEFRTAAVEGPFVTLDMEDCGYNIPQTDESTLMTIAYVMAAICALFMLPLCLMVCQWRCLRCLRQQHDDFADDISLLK
experimental-details: Inhibition of recombinant human BACE-1 expressed in baculovirus using Rh-EVNLDAEFK-Quencher as substrate incubated for 60 mins by FRET assay
On this scale, pIC50 is minus log10 of a concentration expressed in M (mol/L).

structure-notation | assayed-target | pIC50
O=c1c(/C=N/Nc2ccc(C(F)(F)F)cc2)coc2c1ccc1oc(-c3ccc(Cl)cc3)cc12 | Beta-secretase 1 (Homo sapiens, UniProt P56817) | 4.85

Kindly review the next compound as well.
Problem: For the compound shown here, COc1ccc(-c2oc3cc(Br)c(I)cc3c(=O)c2O)cc1 , give the reported pIC50.
Solution: 4.80

The origin of these recorded values is ChEMBL document CHEMBL5223094.
